Value source: patent US20040014191A1

- test_summary: Nitroreductase enzyme assay with CB 1954 as substrate (HPLC)
- Assay type: biochemical
- applied_conditions: Table 6, 37° C.; read-out: Km CB 1954
recorded_metric: Km (µM)
A number alone suffices; assume µM.

# Km (molecule: H. influenzae NfnB: nitroreductase from H. influenzae, SEQ ID NO: 17 (protein, listed as Haemophilus influenzae) MTQLTREQVLELFHQRSSTRYYDPTKKISDEDFECILECGRLSPSSVGSEPWKFLVIQNKTLREKMKPFSWGMINQLDNCSHLVVILAKKNARYDSPFFVDVMARKGLNAEQQQAALTKYKALQEEDMKLLENDRTLFDWCSKQTYIALANMLTGASALGIDSCPIEGFHYDKMNECLAEEGLFDPQEYAVSVAATFGYRSRDIAKKSRKGLDEVVKWVG ) is 690
